# system_name: Neu5Gc(b2-6)Gal(b1-4)GlcNAc
# assay_notes: glycan array binding signal (z-score within array); higher = stronger binding
# assay_conditions: glycan notation: IUPAC condensed, linker removed
The full list was thinned out, with the strongest signals kept by preference.
We begin with a simple list: items and their reported glycan array binding signal (z-score).
Please respond with just the number, no unit label.

Check out these entries, answers already filled in.
- binder: "Langerin CRD (Homo sapiens), Q9UJ71 (protein) QVVSQGWKYFKGNFYYFSLIPKTWYSAEQFCVSRNSHLTSVTSESEQEFLYKTAGGLIYWIGLTKAGMEGDWSWVDDTPFNKVQSVRFWIPGEPNNAGNNEHCGNIKAPSLQAWNDAPCDKTFLFICKRPYVPSEPSAWSHPQFEK"
  property_label: "glycan array binding signal (z-score)"
  data_value: -0.263
- binder: "GSL-I (Griffonia simplicifolia) (protein) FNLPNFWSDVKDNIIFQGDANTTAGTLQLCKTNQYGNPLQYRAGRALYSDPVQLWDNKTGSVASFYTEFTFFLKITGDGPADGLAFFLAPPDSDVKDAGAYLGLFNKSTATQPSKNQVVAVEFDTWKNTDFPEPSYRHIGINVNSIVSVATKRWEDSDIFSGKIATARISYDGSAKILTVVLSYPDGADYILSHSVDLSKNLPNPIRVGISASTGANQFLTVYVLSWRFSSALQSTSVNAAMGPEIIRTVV"
  property_label: "glycan array binding signal (z-score)"
  data_value: -0.099
- binder: "EULS2 M4 (Oryza sativa) (protein) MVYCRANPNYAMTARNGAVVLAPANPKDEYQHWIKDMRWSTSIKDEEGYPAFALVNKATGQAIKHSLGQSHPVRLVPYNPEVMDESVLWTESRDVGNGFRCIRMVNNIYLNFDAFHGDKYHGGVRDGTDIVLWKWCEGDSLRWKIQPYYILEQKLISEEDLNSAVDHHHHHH"
  property_label: "glycan array binding signal (z-score)"
  data_value: -0.504

The recorded glycan array binding signal (z-score) for entry UEA-I (Ulex europaeus), P22972 (protein) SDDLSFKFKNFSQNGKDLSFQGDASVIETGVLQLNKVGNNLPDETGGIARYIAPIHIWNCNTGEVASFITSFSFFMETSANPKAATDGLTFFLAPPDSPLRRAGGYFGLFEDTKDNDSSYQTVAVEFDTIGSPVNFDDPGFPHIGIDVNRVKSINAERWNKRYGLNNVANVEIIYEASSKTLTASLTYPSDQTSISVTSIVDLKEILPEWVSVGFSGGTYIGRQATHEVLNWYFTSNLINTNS equals -0.1

Quick note, glycan array binding signal (z-score) for Strep tagII-anxA1 (Homo sapiens), P04083 (protein) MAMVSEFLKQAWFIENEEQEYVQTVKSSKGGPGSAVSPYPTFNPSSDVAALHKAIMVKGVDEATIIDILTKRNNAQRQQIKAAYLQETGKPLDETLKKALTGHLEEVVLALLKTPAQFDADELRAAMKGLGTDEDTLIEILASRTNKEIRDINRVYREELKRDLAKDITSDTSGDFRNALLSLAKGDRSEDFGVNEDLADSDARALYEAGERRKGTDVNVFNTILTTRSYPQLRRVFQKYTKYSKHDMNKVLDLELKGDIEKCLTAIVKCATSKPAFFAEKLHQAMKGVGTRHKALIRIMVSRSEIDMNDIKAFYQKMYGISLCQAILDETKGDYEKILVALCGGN landed at -0.654

These measurements were taken from the supplement of paper PMC8728848.
